Tested on: Homo sapiens
Assay Remarks: Drug level in human assessed as retention time treated with 10 mg, po of [14C]peliglitazar by LC-MS and LC-MS/MS analysis
Format: ADME, organism-based
Readout Kind: Retention_time (min)

Past entries and their recorded results:
{"Compound": "COc1ccc(OC(=O)N(CC(=O)O)[C@@H](C)c2ccc(OCCc3nc(-c4ccccc4)oc3CO)cc2)cc1", "Units Text": "min", "Retention_time": 39.5}
{"Compound": "COc1ccc(OC(=O)N(CC(=O)O)[C@@H](C)c2ccc(OCC(O)c3nc(-c4ccccc4)oc3C)cc2)cc1 (some centres undefined)", "Units Text": "min", "Retention_time": 46.8}
{"Compound": "C[C@@H](c1ccc(OCCc2nc(-c3ccccc3)oc2CO)cc1)N(CC(=O)O)C(=O)Oc1ccc(O)cc1", "Units Text": "min", "Retention_time": 27.6}

(A) Cc1oc(-c2ccccc2)nc1CC(=O)O
(B) Cc1oc(-c2ccccc2)nc1C(O)COc1ccc([C@H](C)N(CC(=O)O)C(=O)Oc2ccc(O)cc2)cc1 (some centres undefined)
(C) Cc1oc(-c2ccccc2)nc1CCOc1ccc([C@H](C)N(CC(=O)O)C(=O)Oc2ccc(O)cc2)cc1
// smallest Retention_time at index 0, largest at the end Respond with the label ranking, as requested.
A, B, C

(A) COc1ccc(OC(=O)N(CC(=O)O)[C@@H](C)c2ccc(O)cc2)cc1
(B) Cc1oc(-c2ccccc2)nc1CCOc1ccc([C@H](C)N(CC(=O)O[C@@H]2O[C@H](C(=O)O)[C@@H](O)[C@H](O)[C@H]2O)C(=O)Oc2ccc(O)cc2)cc1
Returns the identifier with the smallest measured Retention_time among A and B . The response must carry the label of the picked entry.
A
